# MEASUREMENT PROTOCOL: Renal clearance in Wistar Han rat at 1 mg/kg, iv
# Type: ADME, organism-based
# ASSAY CONDITIONS: in vivo
QUANTITY: CL renal (mL/min/kg)
Numeric only. Scale: mL/min/kg

## Task Fill in reported CL renal for this entry: CCOc1cccnc1Oc1cncc(-c2ncc(C(=O)N[C@@H]3CCNC3)cn2)c1
## Result 5.2

====

# MEASUREMENT PROTOCOL: Clearance in po dosed Wistar Han rat
# Format: ADME, organism-based
# ASSAY CONDITIONS: in vivo
QUANTITY: CL/F (mL/min/kg)
Numeric only. Scale: mL/min/kg

## Task Fill in reported CL/F for this entry: CCOc1cccnc1Oc1cncc(-c2ncc(C(=O)N[C@@H]3CNC[C@@H](F)C3)cn2)c1
## Result 64
